Numbers sourced from patent US20040146519A1.

- MEASURED ON: HLA-A*0202 (human)
- PROTOCOL SUMMARY: competition with 125I probe peptide for purified HLA
pIC50: −log10 of the molar value.
MEASURED ENDPOINT: pIC50

In [3]: df
Out[3]:
                   binder  observed_value
0    GIMIGVLVGV [CEA.690]            6.69
1  QLIGYVIGV [CEA.78L2V9]            8.23
